test: Primary qHTS for delayed death inhibitors of the malarial parasite plastid, 48 hour incubation; conditions: P. falciparum luciferase growth in erythrocytes; series mostly up to 28.7 µM
Out of some 310,000 compounds screened, about 18,000 (5.8%) were called active. Not shown: some 22% with an inconclusive outcome. Calls follow the shape of the dose curve; as a rule, active = well fitted inhibition curve with a large enough effect; inconclusive = small, poorly fitted or top-dose-only effect, or another doubt; inactive = no such curve, though single readings can be large or run the other way. Only a selection was taken, and actives are over-represented in it overall.
Outcomes: yes = active, no = inactive

{"compound": "O=C(NC1CCN(Cc2ccccc2)CC1)c1ccccc1F", "cat": "no"}
{"compound": "O=C(NC(Cc1ccccc1)C(=O)O)/C(=C\\c1ccccc1)NC(=O)c1ccco1 (stereo unspecified)", "cat": "no"}
{"compound": "COc1ccc(COC(=O)NC(C(=O)O)c2ccccc2)cc1 (stereo unspecified)", "cat": "no"}
{"compound": "CNC(=O)c1ccc(NC(=O)c2cccc(C(F)(F)F)c2)cc1", "cat": "no"}
{"compound": "Cc1nc(CN(C)C(=O)CC2C(=O)NCCN2Cc2ccc(F)cc2)cs1 (stereo unspecified)", "cat": "no"}
{"compound": "CCc1c(C)nc(N)n2c(SCC(=O)NC3CCCCC3)nnc12", "cat": "no"}
{"compound": "CC(=O)Oc1cccc(C(=O)Nc2ccccc2NC(=O)c2cccc(OC(C)=O)c2)c1", "cat": "no"}
{"compound": "COc1ccc(C(CCN(Cc2ccc(OC)c(OC)c2)C(=O)CCl)c2ccccc2)cc1 (stereo unspecified)", "cat": "yes"}
{"compound": "C[C@@H](NC(=O)[C@@H]1Cc2ccccc2CN1)C(=O)NC1CCCC1", "cat": "no"}
{"compound": "O=C(Nc1ccc(C(F)(F)F)cc1)c1cccc(-n2cnnn2)c1", "cat": "yes"}
{"compound": "CCOc1ccc(C(CC(=O)O)NC(=O)Cc2ccccc2)cc1OC (stereo unspecified)", "cat": "no"}
